test: fission yeast growth modulation, primary screen, strain 972, OD600, 24 h, no modulator (AID 1090);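 also: basal condition with compound alone and no growth modifier present; test concentration not given here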; conditions: S. pombe 972 growth, higher = more signal, called active from +8 up or from −8 down
z-score vs 0.4: at or above is Condition met, below is Condition not met.

Solved entries:
compound	category
CC(C)(C)OC(=O)CC[C@@]1(C(=O)O)N=C(c2ccc(OCCCO)cc2)O[C@@H]1c1ccccc1N=[N+]=[N-]	Condition met
C=CCOC(=O)[C@@H]1[C@H]2C(=O)O[C@H](c3ccccc3)[C@H](c3ccccc3)N2[C@H](c2ccc(OCCOC(=O)[C@@H]3C[C@@H]4C(=O)NCC(=O)N4[C@@H]3c3cccc(OCCO)c3)cc2)[C@@]12C(=O)Nc1ccc(I)cc12	Condition met
CC(C)C[C@@H]1NC(=O)[C@H]2C[C@@H](C(=O)NCCCCCCNC(=O)CS)[C@@H](c3cccc(OCCO)c3)N2C1=O	Condition not met
COCCOC(=O)N1C(=O)[C@@]2(c3cc(C#CCC(C(=O)OC)C(=O)OC)ccc31)[C@H](C(=O)N1CCCCCCC1)[C@H]1C(=O)O[C@H](c3ccccc3)[C@H](c3ccccc3)N1[C@@H]2c1ccc(OCCO)cc1	Condition not met
N#Cc1ccc(NN2C(C(O)C3CCCCC3)C=CC3C(=O)N(c4ccccc4)C(=O)C32)cc1 (stereo unspecified)	Condition met

In plain terms: is recorded z-score at least 0.4 for "CCOC(=O)C[C@H]1[C@H](OC(=O)c2ccccc2-c2ccccc2)[C@@H](NC(=O)c2ccc3ccccc3c2)c2cc(OCCCO)ccc2N1C(=O)c1ccc2ccccc2n1" ?
Condition met

* * *

assay: P. aeruginosa biofilm formation inhibitors, primary screen, strain PAO1, LB-PBS medium, absorbance 600 nm (AID 1176); also: test concentration not given here; settings: P. aeruginosa PAO1 growth/biofilm, A600, 12 h; higher = more signal
Exercise: for every item that follows, state its recorded z-score.
Numbers only.

> print(dat)
                                   compound  measuredmetric  recordedresult
1  CN(C)CCCCCCNC(=O)[C@H]1C[C@H]2C(=O)N[C@@H](CCCCN)C(=O)N2[C@H]1c1ccc(O)cc1         z-score           0.808
2  C=C(CCCC)C(=O)CC[C@H](OC(=O)c1cccnc1)c1cccc(OCCO)c1         z-score           -0.21

Hi, could you look up z-score for each item in my list?
1. CCOC(=O)[C@H]1C[C@H]2O[C@@]23C[C@H]1C(=O)N1CCCC1[C@@H]3O[Si](C)(C)C(C)(C)C (stereo partly drawn)
2. CN(C)C(=O)[C@@]1(CCC(=O)OC(C)(C)C)N=C(c2ccc(OCCCO)cc2)O[C@H]1c1ccccc1
3. C=CCC(OC(C)=O)[C@@H]1[C@@H](N(Cc2cc3ccccc3o2)C(=O)c2ccc(C)cc2)c2cc(OCCCO)ccc2N1C(=O)c1ccc2ccccc2c1 (stereo partly drawn)
4. O=c1cccc(CCc2ccccc2)o1
5. Cc1cc(C)c(C(O)C2C=CC3C(=O)N(c4ccccc4)C(=O)C3N2Nc2ccc(C#N)cc2)c(C)c1 (stereo not drawn)
6. CCCCCN1CC=CC23O[C@@H]4/C=C\CCC(C)OC(=O)C4[C@H]2C(=O)N(CCCCCO)[C@@H]3C1=O (stereo partly drawn)

1: 0.367; 2: 0.401; 3: -0.583; 4: -0.156; 5: 1.26; 6: 0.357

* * *

assay: A549 lung cancer cell viability effects, profiling panel, resazurin fluorescence, 24 h, PK04 Diversity Set (AID 1171); details: higher = more signal, called active from +8 up or from −8 down; also: test concentration not given here
z-score vs 0.2: at or above is YES, below is NO.

Solved entries:
> print(dat)
                                   molecule  category
1  CC(C)N1CC=CC23O[C@@H]4C=CCOC(=O)[C@@H]4[C@H]2C(=O)N(CCO)[C@@H]3C1=O (stereo partly drawn)       YES
2  CCOC(=O)C1=C[C@@H](C(C)C)N(S(=O)(=O)c2ccc(C)cc2)[C@H]1c1ccc(C(C)C)cc1       YES
3  CCOC(=O)[C@H]1C[C@H]2O[C@@]23C[C@H]1C(=O)N1CCCC1[C@@H]3O[Si](C)(C)C(C)(C)C (stereo partly drawn)        NO
4  COC(=O)[C@@]1(Cc2ccc(OC)cc2)[C@H]2c3cc(C(=O)N4CCCC4)n(Cc4cc(F)cc5c4OCOC5)c3C[C@H]2CN1C(=O)c1ccccc1        NO
5  COc1ccc(C(O)C2C=CC3C(=O)NC(=O)C3N2Nc2ccccn2)cc1OCc1ccccc1 (stereo not drawn)        NO

In plain terms: is recorded z-score at least 0.2 for "COC(=O)c1c(CC[C@@H](CO)NC(=O)N[C@@H](Cc2ccccc2)Cn2cc(C3(O)CCCCC3)nn2)oc(C(C)=O)c1C(=O)OC" ?
YES

In plain terms: is recorded z-score at least 0.2 for Cc1ccccc1C(O)C1C=CC2C(=O)N(C)C(=O)C2N1Nc1ccccc1 (stereo not drawn) ?
NO

In plain terms: is recorded z-score at least 0.2 for "Cc1ccc(S[C@]2(C(=O)NC3CC3)CC(=O)N(C3CCCCC3)[C@@H]2c2ccc(CO)cc2I)cc1" ?
NO

* * *

assay: binders of probe aHhip on microarray, primary screen, stem cell growth factor project, biochemical, small-molecule microarray, fluorescence 635/667 (AID 1087); conditions: higher = more signal;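 also: score merges spot fluorescence at 667nm with spot signal to noise ratio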
measuredMetric: composite z-score
Numbers only.

Look over these answered cases.
compound	composite z-score
Cc1ccc(S[C@]2(C(=O)O)CC(=O)N(C3Cc4ccccc4C3)[C@@H]2c2ccc(CO)cc2I)cc1	-0.0581
COC(=O)c1ccc(C(O)C2C=CC3C(=O)N(C)C(=O)C3N2NC(=O)OC(C)(C)C)o1 (stereo unspecified)	-0.0024
COC(=O)C1=CC(CCCO)=CC(C2CC2)N(Cc2sc3ccccc3c2Cl)C=C1C(=O)OC (stereo unspecified)	-0.266
CC(C)(C)OC(=O)CC[C@@]1(C(=O)O)N=C(c2ccc(OCCCO)cc2)O[C@@H]1c1ccccc1N=[N+]=[N-]	-0.277
C=CCC(OC(C)=O)[C@@H]1[C@@H](N(Cc2ccc(-c3ccccc3)cc2)C(=O)Cc2ccc(OC)cc2)c2cc(OCCCO)ccc2N1C(=O)c1ccc2ccccc2n1 (stereo partly specified)	-0.0994
CO[C@H]1O[C@H](CO)[C@@H](OC(=O)Nc2ccc3c(c2)OCO3)[C@H](OC(=O)Nc2ccccc2)[C@H]1OC(=O)Nc1ccccc1	-0.0645
[N-]=[N+]=NCc1ccccc1C[C@@]1(C(=O)N2CCOCC2)N=C(c2ccc(OCCCO)cc2)O[C@@H]1c1ccccc1CN=[N+]=[N-]	0.156
C=CCNC(=O)[C@@H]1[C@H]2C(=O)O[C@H](c3ccccc3)[C@H](c3ccccc3)N2[C@H](c2ccc(OCCO)cc2)[C@@]12C(=O)Nc1ccccc12	-0.513
COCCOC(=O)N1C(=O)[C@@]2(c3cc(C#CCNC(N)=O)ccc31)[C@H](C(=O)N1CCc3cc(OC)c(OC)cc3C1)[C@H]1C(=O)O[C@H](c3ccccc3)[C@H](c3ccccc3)N1[C@@H]2c1ccc(OCCO)cc1	0.12
CCCCC(O)C1C=CC2C(=O)N(C3CCCCC3)C(=O)C2N1Nc1ccc(OC)cc1 (stereo unspecified)	0.107

Hi, could you look up composite z-score for each item in my list?
1. COc1ccc(CCN2C(=O)[C@@]3(Cc4ccccc42)c2ccccc2C(=O)N(Cc2ccccc2Cl)[C@H]3c2ccc(CO)cc2)cc1
2. COc1ccc([Si](C)(C)[C@@H]2[C@@H](CCn3cc([C@H](O)c4ccccc4)nn3)O[C@]3(C(=O)N(Cc4ccc(N5C(=O)c6cccc7cccc5c67)cc4)c4ccccc43)[C@H]2C)cc1
3. CN1C=C(C(=O)OCCS(C)(=O)=O)C(C(=O)OCCS(C)(=O)=O)=CC(CCCO)=CC1C1CC1 (stereo unspecified)

1. -0.0994
2. -0.199
3. -0.0618

* * *

assay: PSAC antagonists in infected red cells, primary screen, cell-based, P. falciparum Indochina, OD700, 2 h (AID 1155);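 also: lysis reports solute entry through the parasite surface anion channel PSAC; channel blockers reduce lysis of infected cells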; details: P. falciparum Indochina infected erythrocytes, osmotic lysis OD700; higher = more signal, called active from +8 up or from −8 down
Calls of active or inactive are those of the source.
measuredMetric: z-score

> print(dat)
                                   molecule  measuredmetric     recordedresult
1  CCCN1C(=O)[C@]2(COC(c3ccc(OCCCO)cc3)=N2)Cc2ccccc21         z-score    2.23 (inactive)
2  CCCC[C@@H]1C[C@H]1[C@@H](NC(=O)c1ccc(-c2ccccc2)cc1)c1ccc(-c2ccccc2)cc1         z-score   0.275 (inactive)
3  CC(C)OC(=O)CC(=O)CC(O)c1ccc(C#N)cc1 (stereo not drawn)         z-score  -0.344 (inactive)
4  CCOC(=O)C[C@H]1[C@H](OC(=O)c2ccccc2-c2ccccc2)[C@@H](NC(=O)c2ccc3ccccc3c2)c2cc(OCCCO)ccc2N1C(=O)c1ccc2ccccc2n1         z-score   0.759 (inactive)
5  COCC(=C=CC[C@H](O)c1ccc(OCCO)cc1)C[C@H](O)c1cc(Cl)cc(Cl)c1O         z-score    2.44 (inactive)

Hi, could you look up z-score for each item in my list?
1. O=C1N(CCS(=O)(=O)c2ccccc2)Cc2ccccc2C[C@]12N=C(c1ccc(OCCCO)cc1)O[C@@H]2c1ccccc1
2. CC(C)c1ccc(NN2C(C(O)c3cccc(O)c3)C=CC3C(=O)N(c4ccccc4)C(=O)C32)cc1 (stereo not drawn)
3. COCCOC(=O)N1C(=O)[C@@]2(c3cc(C#CCCO)ccc31)[C@H](c1ccc(O)cc1)N1[C@H](c3ccccc3)[C@H](c3ccccc3)OC(=O)[C@H]1[C@@H]2C(N)=O

["8.54 (active)", "1.14 (inactive)", "1.15 (inactive)"]
